# System tested: CDK2/cyclin A (Homo sapiens)
# Construct: made in house; host or cells: CDK2: insect cells (baculovirus); cyclin A: E. coli
# Procedure text: Inhibition of CDK2/cyclin A retinoblastoma kinase activity (Ki; % inhibition)
# Assay type: biochemical
# Condition notes: apparent Ki, CDK2/cyclin A, Rb substrate
Where a name gives a salt, the structure may show the parent alone.
Attribute: Ki

CN1C[C@H](O)C[C@H]1CNC(=O)c1ccc(Nc2nc(N)c(C(=O)c3c(F)cccc3F)s2)cc1	52 nM
C[C@@H](CN(C)C)NC(=O)c1ccc(Nc2nc(N)c(C(=O)c3c(F)cccc3F)s2)cc1	230 nM
Nc1nc(Nc2ccc(C(=O)Nc3ccc4c(c3)OCCO4)cc2)sc1C(=O)c1c(F)cccc1F	51 nM
CNC(C)(C)CNC(=O)c1ccc(Nc2nc(N)c(C(=O)c3c(F)cccc3F)s2)cc1 [Example A18, Acetic Acid Salt]	190 nM

Next molecule, Ki to be filled in.
Recall and state the measured Ki for CN(C)CC(C)(C)NC(=O)c1ccc(Nc2nc(N)c(C(=O)c3c(F)cccc3F)s2)cc1 [Example A61, Dihydrochloride] .
37.5 nM

* * *

# System tested: CDK2/cyclin A (Homo sapiens, UniProt P24941)
# Construct: made in house; host or cells: CDK2: insect cells (baculovirus); cyclin A: E. coli
# Procedure text: Inhibition of CDK2/cyclin A retinoblastoma kinase activity (Ki; % inhibition)
# Assay type: biochemical
# Condition notes: at 0.03 μM
Please note: 1.0 applies when CDK2 % Inhibition at 0.03 μM is 10% or greater, and 0.0 applies otherwise.

Nc1nc(Nc2ccc(C(=O)N3CCOCC3)cc2)sc1C(=O)c1c(F)cccc1F	0.0

Has `Cc1nccc(-c2cccc(NC(=O)c3ccc(Nc4nc(N)c(C(=O)c5c(F)cccc5F)s4)cc3)c2)n1` a recorded CDK2 % Inhibition at 0.03 μM greater than or equal to 10%?
0.0

Has `CN(CC#N)C(=O)c1ccc(Nc2nc(N)c(C(=O)c3c(F)cccc3F)s2)cc1` a recorded CDK2 % Inhibition at 0.03 μM greater than or equal to 10%?
1.0

Has `C#CCCN(CCCC)C(=O)c1ccc(Nc2nc(N)c(C(=O)c3c(F)cccc3F)s2)cc1` a recorded CDK2 % Inhibition at 0.03 μM greater than or equal to 10%?
0.0

Has Nc1nc(Nc2ccc(C(=O)NC(CO)c3ccccc3)cc2)sc1C(=O)c1c(F)cccc1F (stereo not shown) [Example G160] a recorded CDK2 % Inhibition at 0.03 μM greater than or equal to 10%?
1.0

Has `CC(=O)NCCNC(=O)c1ccc(Nc2nc(N)c(C(=O)c3c(F)cccc3F)s2)cc1` a recorded CDK2 % Inhibition at 0.03 μM greater than or equal to 10%?
1.0

Has NC(=O)C1CCCN(C(=O)c2ccc(Nc3nc(N)c(C(=O)c4c(F)cccc4F)s3)cc2)C1 (stereo not shown) a recorded CDK2 % Inhibition at 0.03 μM greater than or equal to 10%?
1.0

Has `Nc1nc(Nc2ccc(C(=O)NCCNc3ccccc3)cc2)sc1C(=O)c1c(F)cccc1F` a recorded CDK2 % Inhibition at 0.03 μM greater than or equal to 10%?
1.0

Has `COc1ccc(CNC(=O)c2ccc(Nc3nc(N)c(C(=O)c4c(F)cccc4F)s3)cc2)cc1` a recorded CDK2 % Inhibition at 0.03 μM greater than or equal to 10%?
1.0

Has `Nc1nc(Nc2ccc(C(=O)Nc3ccc(-c4csnn4)cc3)cc2)sc1C(=O)c1c(F)cccc1F` a recorded CDK2 % Inhibition at 0.03 μM greater than or equal to 10%?
0.0

Has CCCC(C)NC(=O)c1ccc(Nc2nc(N)c(C(=O)c3c(F)cccc3F)s2)cc1 (stereo not shown) a recorded CDK2 % Inhibition at 0.03 μM greater than or equal to 10%?
1.0

Has `CCCN(CC1CC1)C(=O)c1ccc(Nc2nc(N)c(C(=O)c3c(F)cccc3F)s2)cc1` a recorded CDK2 % Inhibition at 0.03 μM greater than or equal to 10%?
0.0

Has `COCCN(C)C(=O)c1ccc(Nc2nc(N)c(C(=O)c3c(F)cccc3F)s2)cc1` a recorded CDK2 % Inhibition at 0.03 μM greater than or equal to 10%?
0.0

Has Nc1nc(Nc2ccc(C(=O)NC3CCOC3=O)cc2)sc1C(=O)c1c(F)cccc1F (stereo not shown) a recorded CDK2 % Inhibition at 0.03 μM greater than or equal to 10%?
1.0

Has `CN(CCO)C(=O)c1ccc(Nc2nc(N)c(C(=O)c3c(F)cccc3F)s2)cc1` a recorded CDK2 % Inhibition at 0.03 μM greater than or equal to 10%?
0.0

* * *

Attribute: HCT-116 % Inhibition at 0.25 μM
# Test system: HCT-116 cell line
# Procedure text: Inhibition of cell growth, MTT tetrazolium salt assay
# Assay type: cell-based
# Condition notes: HCT-116 cells, 0.25 μM compound
# unit: % | format: bare number

CCCN(CCO)C(=O)c1ccc(Nc2nc(N)c(C(=O)c3c(F)cccc3F)s2)cc1 [Example G233]	48

Recall and state the measured HCT-116 % Inhibition at 0.25 μM for Nc1nc(Nc2ccc(C(=O)Nc3ccccc3CCO)cc2)sc1C(=O)c1c(F)cccc1F [Example G207] .
66

Recall and state the measured HCT-116 % Inhibition at 0.25 μM for Nc1nc(Nc2ccc(C(=O)Nc3ccc(Cl)cc3CO)cc2)sc1C(=O)c1c(F)cccc1F [Example G341] .
93

Recall and state the measured HCT-116 % Inhibition at 0.25 μM for C=CCN(C(=O)c1ccc(Nc2nc(N)c(C(=O)c3c(F)cccc3F)s2)cc1)C1CCCCC1 [Example G320] .
46

Recall and state the measured HCT-116 % Inhibition at 0.25 μM for CC(C)NC(=O)CN1CCN(C(=O)c2ccc(Nc3nc(N)c(C(=O)c4c(F)cccc4F)s3)cc2)CC1 [Example G335] .
42

Recall and state the measured HCT-116 % Inhibition at 0.25 μM for Nc1nc(Nc2ccc(C(=O)NCCCCO)cc2)sc1C(=O)c1c(F)cccc1F [Example G256] .
49

Recall and state the measured HCT-116 % Inhibition at 0.25 μM for Nc1nc(Nc2ccc(C(=O)Nc3ccc4[nH]ccc4c3)cc2)sc1C(=O)c1c(F)cccc1F [Example G227] .
84

Recall and state the measured HCT-116 % Inhibition at 0.25 μM for Nc1nc(Nc2ccc(C(=O)NCCC3OCCO3)cc2)sc1C(=O)c1c(F)cccc1F [Example G342] .
55

Recall and state the measured HCT-116 % Inhibition at 0.25 μM for Nc1nc(Nc2ccc(C(=O)NCCCO)cc2)sc1C(=O)c1c(F)cccc1F [Example G334] .
41

Recall and state the measured HCT-116 % Inhibition at 0.25 μM for CCN(C(=O)c1ccc(Nc2nc(N)c(C(=O)c3c(F)cccc3F)s2)cc1)C1CCCCC1 [Example G312] .
58

Recall and state the measured HCT-116 % Inhibition at 0.25 μM for CCOc1ccccc1CNC(=O)c1ccc(Nc2nc(N)c(C(=O)c3c(F)cccc3F)s2)cc1 [Example G285] .
60

Recall and state the measured HCT-116 % Inhibition at 0.25 μM for Nc1nc(Nc2ccc(C(=O)N3CCN(c4ccncc4)CC3)cc2)sc1C(=O)c1c(F)cccc1F [Example G311] .
43

* * *

Attribute: HCT-116 % Inhibition at 0.25 μM
# System: HCT-116 cell line
# Procedure text: Inhibition of cell growth, MTT tetrazolium salt assay
# Format: cell-based
# Condition notes: HCT-116 cells, 0.25 μM compound
# Experimental: Inhibition of cell growth was measured using the tetrazolium salt assay, which is based on the ability of viable cells to reduce 3-(4,5-dimethylthiazol-2-yl)-2,5-[2H]-diphenyltetrazolium bromide (MTT) to formazan (Mossman, Journal of Immunological Methods, 65, (1983), pp. 55-58). The water-insoluble purple formazan product was then detected spectrophotometrically. The HCT-116 cell line was used as a representative cancer cell line and grown in 96-well plates. […]
# unit: % | format: bare number

Check out these entries, answers already filled in.
Nc1nc(Nc2ccc(C(=O)Nc3cccc(O)c3)cc2)sc1C(=O)c1c(F)cccc1F [Example G378]	60
CN(CCC(O)c1ccccc1)C(=O)c1ccc(Nc2nc(N)c(C(=O)c3c(F)cccc3F)s2)cc1 (centres unmarked) [Example G370]	52
Nc1nc(Nc2ccc(C(=O)NCCCc3ccccc3)cc2)sc1C(=O)c1c(F)cccc1F [Example G325]	51
CCCCC(CO)NC(=O)c1ccc(Nc2nc(N)c(C(=O)c3c(F)cccc3F)s2)cc1 (centres unmarked) [Example G329]	56
CC[C@H](C)[C@@H](CO)NC(=O)c1ccc(Nc2nc(N)c(C(=O)c3c(F)cccc3F)s2)cc1 [Example G327]	55
CCN(CCc1ccccn1)C(=O)c1ccc(Nc2nc(N)c(C(=O)c3c(F)cccc3F)s2)cc1 [Example G251]	48

Return reported HCT-116 % Inhibition at 0.25 μM for target or system HCT-116 cell line, item Nc1nc(Nc2ccc(C(=O)NCC(O)c3ccccc3)cc2)sc1C(=O)c1c(F)cccc1F (centres unmarked) [Example G391] .
50

Return reported HCT-116 % Inhibition at 0.25 μM for target or system HCT-116 cell line, item CCCN(CCC#N)C(=O)c1ccc(Nc2nc(N)c(C(=O)c3c(F)cccc3F)s2)cc1 [Example G364] .
40
